experiment: Plasma, brain and CSF pharmacokinetics and brain tissue accumulation in mice (LC-MS/MS); assay type: in vivo, male C57BL/6 mice; settings: male, C57BL/6, mouse, brain/plasma; 5 mg/kg oral; time point 0.50 h; read-out: B/P-Kp (brain to plasma ratio)
Recorded endpoint: Kp at 0.5 h
Lab note: jot the number down without any unit.

So what's the measured Kp at 0.5 h for this one? Cc1c(N[S+](=O)(O)c2c(Cl)cc(-c3ccnc(N4CCNCC4)c3)cc2Cl)c(CC(C)C)nn1C [PCLX-001]
0.02

---

experiment: Plasma, brain and CSF pharmacokinetics and brain tissue accumulation in mice (LC-MS/MS); assay type: in vivo, male C57BL/6 mice; settings: male, C57BL/6, mouse, brain/plasma; 5 mg/kg oral; time point 0.25 h; read-out: B/P-Kp (brain to plasma ratio)
Recorded endpoint: Kp at 0.25 h
Lab note: jot the number down without any unit.

So what's the measured Kp at 0.25 h for this one? Cc1c(N[S+](=O)(O)c2c(Cl)cc(-c3ccnc(N4CCNCC4)c3)cc2Cl)c(CC(C)C)nn1C [PCLX-001]
0.01
